Data origin, for the record: patent US12281122B1

Property: pIC50; scope: individual compounds
Tested on: SKBR3 (PI3Kα-Wild Type) cell line
Assay: HTRF phospho-AKT(S473) cell assay in SKBR3 cells
Type: cell-based, human
Conditions: Homo sapiens, SK-BR-3; HTRF phospho-AKT(S473), SKBR3 (PI3Kα-Wild Type) cells, 2 hours compound incubation, PDGF-BB stimulated
Method: Compounds in the present disclosure were tested in a cell based HTRF phospho-AKT(S473) (CisBio/Revvity) assay in human breast cancer cell lines as a measurement of PIK3CA activity through measuring AKT, a downstream effector. The activity of mutant PI3Kα-H1047R and PI3Kα-Wild Type was measured in the T47D (PI3Kα-H1047R) and SKBR3 (PI3Kα-Wild Type) cell lines, respectively. […] The following day, plates were centrifuged for 1 minute at 1000 rpm, and read on a PHERAstar plate reader. […]
pIC50: −log10 of the molar value.

{"columns": ["COMPOUND", "TARGET_DESC", "RESULT"],
 "data": [
  ["Cc1cc([C@@H](C)Nc2ccc(Cl)nc2C(=O)NS(C)(=O)=O)c2nc(N3C[C@H]4C[C@@H]3C[C@@H]4c3nn(C)cc3F)n(C)c(=O)c2c1 (relative stereo)", "SKBR3 (PI3Kα-Wild Type) cell line", "5.30 to 6.00"],
  ["COc1cc([C@H]2[C@@H]3CN(c4nc5c([C@@H](C)Nc6ccc(Cl)nc6C(=O)NS(C)(=O)=O)cc(C)cc5c(=O)n4C)C[C@@H]32)n(C)n1", "SKBR3 (PI3Kα-Wild Type) cell line", "5.30 to 6.00"],
  ["Cc1cc([C@@H](C)Nc2ccc(Cl)nc2C(=O)NS(C)(=O)=O)c2nc(N3CC[C@H](Nc4ncc(F)cn4)C3)n(C)c(=O)c2c1", "SKBR3 (PI3Kα-Wild Type) cell line", "≤ 5.30"],
  ["Cc1cc([C@@H](C)Nc2ccc(Cl)nc2C(=O)NS(C)(=O)=O)c2nc(N3CCN(c4ncc(F)cn4)CC3)n(C)c(=O)c2c1", "SKBR3 (PI3Kα-Wild Type) cell line", "5.30 to 6.00"]
]}

// lookup pIC50 for Cc1cc([C@@H](C)Nc2ccc(Cl)nc2C(=O)NS(C)(=O)=O)c2nc(N3CCC(c4nn(C)cc4Cl)CC3)n(C)c(=O)c2c1
≤ 5.30

Lookup Cc1cc([C@@H](C)Nc2ccc(Cl)nc2C(=O)NS(C)(=O)=O)c2nc(N3CCC(c4nnc(C)o4)CC3)n(C)c(=O)c2c1
5.30 to 6.00

* * *

test system: SKBR3 (PI3Kα-Wild Type) cell line; test: HTRF phospho-AKT(S473) cell assay in SKBR3 cells; format: cell-based, human; conditions: Homo sapiens, SK-BR-3; HTRF phospho-AKT(S473), SKBR3 (PI3Kα-Wild Type) cells, 2 hours compound incubation, PDGF-BB stimulated
pIC50: −log10 of the molar value.
Items are presented alongside their recorded pIC50.

Below: 5 molecules and their reported pIC50.
{"columns": ["MOLECULE", "MEASURED_ATTRIBUTE", "RESULT"],
 "data": [
  ["Cc1cc([C@@H](C)Nc2ccc(Cl)nc2C(=O)NS(C)(=O)=O)c2nc(N3C[C@@H]4[C@H](C3)[C@H]4c3coc(C)n3)n(C)c(=O)c2c1", "pIC50", "5.30 to 6.00"],
  ["Cc1cc([C@@H](C)Nc2ccc(Cl)nc2C(=O)NS(C)(=O)=O)c2nc(N3C[C@@H]4[C@H](C3)[C@H]4c3cc(C)nn3C3CC3)n(C)c(=O)c2c1", "pIC50", "5.30 to 6.00"],
  ["Cc1cc([C@@H](C)Nc2ccc(Cl)nc2C(=O)NS(C)(=O)=O)c2nc(N3CCC(c4nccc(C)n4)CC3)n(C)c(=O)c2c1", "pIC50", "≤ 5.30"],
  ["Cc1cc([C@@H](C)Nc2ccc(Cl)nc2C(=O)NS(C)(=O)=O)c2nc(-c3ccc4nn(CC(F)(F)F)cc4c3)n(C)c(=O)c2c1", "pIC50", "5.30 to 6.00"],
  ["Cc1cc([C@@H](C)Nc2ccc(Cl)nc2C(=O)NS(C)(=O)=O)c2nc(N3C[C@@H]4[C@H](C3)[C@H]4c3ncc(C)o3)n(C)c(=O)c2c1", "pIC50", "5.30 to 6.00"]
]}

Form: Entry = Cc1cc([C@@H](C)Nc2ccc(Cl)nc2C(=O)NS(C)(=O)=O)c2nc(N3CCC(Oc4ccccn4)CC3)n(C)c(=O)c2c1 | System = SKBR3 (PI3Kα-Wild Type) cell line | pIC50 = ____
≤ 5.30

Queued: Cc1cc([C@@H](C)Nc2ccc(Cl)nc2C(=O)NS(C)(=O)=O)c2nc(N3C[C@@H]4C[C@H]3C[C@H]4c3nn(C)cc3F)n(C)c(=O)c2c1 (relative stereo)
5.30 to 6.00

Record: CCn1c(N2Cc3cn(CC(F)(F)F)nc3C2)nc2c([C@@H](C)Nc3ccc(Cl)nc3C(=O)NS(C)(=O)=O)cc(C)cc2c1=O
5.30 to 6.00

Please give the result for Cc1cc([C@@H](C)Nc2ccc(Cl)nc2C(=O)NS(C)(=O)=O)c2nc(N3CCn4nccc4C3)n(C)c(=O)c2c1 too.
5.30 to 6.00

Ok, now CCn1ncc(F)c1C1CCN(c2nc3c([C@@H](C)Nc4ccc(Cl)nc4C(=O)NS(C)(=O)=O)cc(C)cc3c(=O)n2C)CC1
≤ 5.30

Cool, now Cc1cc([C@@H](C)Nc2ccc(Cl)nc2C(=O)NS(C)(=O)=O)c2nc(N3C[C@@H]4[C@H](C3)[C@H]4c3nnc(C)n3C(F)F)n(C)c(=O)c2c1
≤ 5.30

Continue with Cc1cc([C@@H](C)Nc2ccc(Cl)nc2C(=O)NS(C)(=O)=O)c2nc(-c3cnc(N4CCOCC4)nc3)n(C)c(=O)c2c1
5.30 to 6.00

Can you handle Cc1cc([C@@H](C)Nc2ccc(Cl)nc2C(=O)NS(C)(=O)=O)c2nc(N3C[C@@H]4[C@H](C3)[C@H]4c3nnn(C)c3C)n(C)c(=O)c2c1 next?
5.30 to 6.00

Field entry: Cc1cc([C@@H](C)Nc2ccc(Cl)nc2C(=O)NS(C)(=O)=O)c2nc(N3Cc4cnc(C)nc4C3)n(C)c(=O)c2c1
5.30 to 6.00

Item: Cc1cc([C@@H](C)Nc2ccc(Cl)nc2C(=O)NS(C)(=O)=O)c2nc(N3C[C@@H]4[C@H](C3)[C@H]4n3ncc(F)c3C)n(C)c(=O)c2c1
5.30 to 6.00

Queued: Cc1cc([C@@H](C)Nc2ccc(Cl)nc2C(=O)NS(C)(=O)=O)c2nc(N3C[C@@H]4[C@H](C3)[C@H]4c3cnn(C4CC4)n3)n(C)c(=O)c2c1
≤ 5.30

Check Cc1cc([C@@H](C)Nc2ccc(Cl)nc2C(=O)NS(C)(=O)=O)c2nc(N3CCC(c4ncn(C(C)C)n4)CC3)n(C)c(=O)c2c1 too.
≤ 5.30

Same thing, different molecule: C[C@@H](Nc1ccc(Cl)nc1C(=O)NS(C)(=O)=O)c1cc(Cl)cc2c(=O)n(C)c(N3C[C@@H]4[C@H](C3)[C@H]4c3ccn(C)n3)nc12
5.30 to 6.00

Another molecule to check: Cc1cc([C@@H](C)Nc2ccc(Cl)nc2C(=O)NS(C)(=O)=O)c2nc(N3CCC(n4ncc5ccccc54)CC3)n(C)c(=O)c2c1
≤ 5.30

Try this molecule next: Cc1cc([C@@H](C)Nc2ccc(Cl)nc2C(=O)NS(C)(=O)=O)c2nc(N3C[C@@H]4[C@H](C3)[C@H]4c3cnc(C(F)F)nc3)n(C)c(=O)c2c1
5.30 to 6.00

Could you do the same for Cc1cc([C@@H](C)Nc2ccc(Cl)nc2C(=O)NS(C)(=O)=O)c2nc(N3CC[C@H](Nc4ncccn4)C3)n(C)c(=O)c2c1 , please?
≤ 5.30

Now the same for CCn1cc(F)c(C2CCN(c3nc4c([C@@H](C)Nc5ccc(Cl)nc5C(=O)NS(C)(=O)=O)cc(C)cc4c(=O)n3C)CC2)n1
≤ 5.30

Same read-out for COc1ccc(N2CCN(c3nc4c([C@@H](C)Nc5ccc(Cl)nc5C(=O)NS(C)(=O)=O)cc(C)cc4c(=O)n3C)CC2)cn1 ?
5.30 to 6.00

* * *

Measured IC50 values are reported for all entries that follow.
test system: SKBR3 (PI3Kα-Wild Type) cell line; test: HTRF phospho-AKT(S473) cell assay in SKBR3 cells; type: cell-based, human; conditions: Homo sapiens, SK-BR-3; SKBR3 (PI3Kα-Wild Type) cells, HTRF phospho-AKT(S473), 2 hours compound incubation, PDGF-BB stimulated

Please review the following examples before continuing.
{"columns": ["COMPOUND", "TARGET_DESC", "IC50"],
 "data": [
  ["Cc1cc([C@@H](C)Nc2ccc(Cl)nc2S(=O)(=O)NC(=O)N(C)C)c2nc(N3Cc4ccc(F)cc4C3)n(C)c(=O)c2c1", "SKBR3 (PI3Kα-Wild Type) cell line", "≥ 5 µM"],
  ["Cc1cc([C@@H](C)Nc2ccc(Cl)nc2C(=O)NS(C)(=O)=O)c2nc(N3C[C@@H]4[C@H](C3)[C@H]4c3cnn(C)n3)n(C)c(=O)c2c1", "SKBR3 (PI3Kα-Wild Type) cell line", "1 to 5 µM"],
  ["Cc1cc([C@@H](C)Nc2ccc(Cl)nc2C(=O)NS(C)(=O)=O)c2nc(N3C[C@@H]4[C@H](C3)[C@H]4c3cn(C)nn3)n(C)c(=O)c2c1", "SKBR3 (PI3Kα-Wild Type) cell line", "1 to 5 µM"],
  ["C[C@@H](Nc1ccc(Cl)nc1C(=O)NS(C)(=O)=O)c1cc(F)cc2c(=O)n(C)c(N3CC4CC4C3)nc12 (stereo partly drawn)", "SKBR3 (PI3Kα-Wild Type) cell line", "1 to 5 µM"],
  ["COc1cnc(C2CCN(c3nc4c([C@@H](C)Nc5ccc(Cl)nc5C(=O)NS(C)(=O)=O)cc(C)cc4c(=O)n3C)CC2)cn1", "SKBR3 (PI3Kα-Wild Type) cell line", "≥ 5 µM"]
]}

Report IC50 for Cc1cc([C@@H](C)Nc2ccc(Cl)nc2C(=O)NS(C)(=O)=O)c2nc(N3CCC(c4ccn(C)n4)CC3)n(C)c(=O)c2c1 please.
1 to 5 µM

And what about the compound Cc1cc([C@@H](C)Nc2ccc(Cl)nc2C(=O)NS(C)(=O)=O)c2nc(NC3CCC3)n(C)c(=O)c2c1 ?
≥ 5 µM
